Measured values drawn from ChEMBL document CHEMBL1201862 for this set.

- Tested on: CAKI-1
- Method description: NCI tumour cell line growth inhibition, 48 h
Calls of active or inactive are those of the source. Rule as the data show it: active = GI50 up to about 1.1 µM and inactive = higher.
# valid calls are Y = active, N = inactive; nothing else

Input line: Hi, do you know how Cc1cc2c(cc1Cl)Sc1n[nH]c(=O)n1S2(=O)=O came out in this test?
Output line: N

Input line: Hi, do you know how O=C(CSCC(=O)N/N=C\c1ccccc1F)N/N=C\c1ccccc1F came out in this test?
Output line: N

Input line: Hi, do you know how CC(=O)O[C@H]1C(=O)[C@@]2(C)[C@H]([C@H](OC(=O)c3ccncc3)[C@]3(O)C[C@H](OC(=O)[C@H](O)[C@@H](NC(=O)c4ccccc4)c4ccccc4)C(C)=C1C3(C)C)[C@]1(OC(C)=O)CO[C@@H]1C[C@@H]2O came out in this test?
Output line: N

Input line: Hi, do you know how CC#CC1C(OC(=O)c2ccccc2)CCCC1(CI)N=[N+]=[N-] (centres undefined) came out in this test?
Output line: N

Input line: Hi, do you know how CC(=O)Nc1ccc(-c2nnc(SCC(=O)Nc3ccc(Cl)cc3Cl)o2)cc1 came out in this test?
Output line: N

Input line: Hi, do you know how CCCCCCCCCCCCNC1(C)CNCCCNCCNCCCNC1 came out in this test?
Output line: N

Input line: Hi, do you know how O=c1[nH]n(CCc2ccccc2CCl)c2ccc([N+](=O)[O-])cc12 came out in this test?
Output line: N

Input line: Hi, do you know how CN1CCC(C(=O)NNc2ccccc2)CC1 came out in this test?
Output line: N

Input line: Hi, do you know how C/C(=N\O)c1ccc(Nc2c3ccccc3nc3occc23)cc1 came out in this test?
Output line: Y

====

- Test system: XF498
- Method description: NCI tumour cell line growth inhibition, 48 h
The source made the active and inactive calls. Rule as the data show it: active = GI50 up to about 1.1 µM and inactive = higher.
Exercise: state measured GI50 for each of the molecules provided.

Input line: Request the reported GI50 associated with N#CC1(Cc2ccccc2)CCCCN1C(=O)c1ccccc1 (stereo unspecified)
Output line: > 100 µM (inactive)

Input line: Request the reported GI50 associated with CCOC(=O)CP(=S)(S)c1ccccc1 (stereo unspecified)
Output line: 45.2 µM (inactive)

Input line: Request the reported GI50 associated with CC1CC(c2ccc([N+](=O)[O-])cc2)=Nc2ccccc2[S+]1[O-] (stereo unspecified)
Output line: 28.7 µM (inactive)

Input line: Request the reported GI50 associated with CC1(C)C(=O)OC(n2cc(F)c(=O)[nH]c2=O)C1=O (stereo unspecified)
Output line: > 100 µM (inactive)

Input line: Request the reported GI50 associated with CCNC(=O)OCc1c(COC(=O)NCC)c(-c2ccc(Cl)c(Cl)c2)n2c1CCC2
Output line: 16.1 µM (inactive)

Input line: Request the reported GI50 associated with C#CCCCCC#Cc1ccccc1C(=O)OC
Output line: 65.8 µM (inactive)

====

- System: Hs-578T
- Method description: NCI tumour cell line growth inhibition, 48 h
Activity calls are given as the source filed them. Rule as the data show it: active = GI50 up to about 1.1 µM and inactive = higher.
Property: GI50

Input line: Find the measured GI50: item COC(=O)C(=O)C(C(=O)C(=O)Nc1cccc([N+](=O)[O-])c1)c1nc2ccc(Cl)cc2nc1O (stereo not given) , target or system Hs-578T.
Output line: > 100 µM (inactive)

Input line: Find the measured GI50: item Nc1cc2c3c(cccc3c1)C(=O)N(c1ccc(OCCN3CCCCC3)cc1)C2=O , target or system Hs-578T.
Output line: 27.7 µM (inactive)

Input line: Find the measured GI50: item NC(=O)c1ncn2c1CNC(=O)C2 , target or system Hs-578T.
Output line: > 100 µM (inactive)

Input line: Find the measured GI50: item COC(=O)c1ccc(C(=O)NC(Cc2ccc(Oc3cc(CC(NC(=O)c4ccccc4C(=O)OC)C(=O)OC)ccc3OC)cc2)C(=O)OC)cc1 (stereo not given) , target or system Hs-578T.
Output line: 4.21 µM (inactive)

Input line: Find the measured GI50: item O=C1OCN(c2ccccc2)C12CCN(Cc1ccccc1)CC2 , target or system Hs-578T.
Output line: 23.9 µM (inactive)

====

- Test system: IGROV-1
- Method description: NCI tumour cell line growth inhibition, 48 h
Active and inactive are the calls of the source. No stated cut-off is given here; in the data, active = GI50 up to about 1.1 µM and inactive = higher.
Property: GI50

Input line: Request the reported GI50 associated with CCOC(=O)c1cc(/C=C/C(C)=C/C(=O)OC)oc1-c1ccccc1
Output line: 66.7 µM (inactive)

Input line: Request the reported GI50 associated with CCOC(=O)[C@H](Cc1ccccc1)NC(=O)c1nc[nH]c1[N+](=O)[O-]
Output line: > 100 µM (inactive)

Input line: Request the reported GI50 associated with C=C1N(S(=O)(=O)c2ccc(C)cc2)C(=O)OCC12CCCC2
Output line: 31.3 µM (inactive)

Input line: Request the reported GI50 associated with C=C1C(=O)O[C@H]2[C@@H]3O[C@@](C)(CC/C=C(\C)CCC[C@@H]2C)[C@H](O)C[C@@H]13
Output line: 4.72 µM (inactive)

Input line: Request the reported GI50 associated with FC(F)(F)c1cnc(N/N=C(/c2ccccc2)c2ccccn2)c(Cl)c1
Output line: 2.83 µM (inactive)

Input line: Request the reported GI50 associated with Cc1nn(-c2ccccc2)c2c1C(c1cc3ccccc3nc1Cl)NC(=O)N2 (stereo not given)
Output line: 11 µM (inactive)

Input line: Request the reported GI50 associated with OCCCCn1cc(Cn2ncc3c(NCc4ccccc4)ncnc32)nn1
Output line: > 100 µM (inactive)

Input line: Request the reported GI50 associated with Cc1coc2c1C[C@@]1(C)[C@H](CCC[C@@H]1C)[C@H]2O
Output line: 19.8 µM (inactive)

Input line: Request the reported GI50 associated with CCCCS(=O)(=O)CCC(N)C(=O)O (stereo not given)
Output line: > 100 µM (inactive)

Input line: Request the reported GI50 associated with O=[N+]([O-])C1(CO)COC2(OC1)c1ccccc1-c1ccccc12
Output line: > 89.1 µM (inactive)

====

Exercise: state measured GI50 for each of the compounds provided.
Your answer is read as µM, so omit the unit and give the number.

Input line: Find the measured GI50: item O=S(=O)(c1ccccc1)c1cccc2c1NCCC2 , target or system HCT-15.
Output line: 32.4

Input line: Find the measured GI50: item O=C1C=C2CO[C@H]3OC[C@H](O)[C@@H]1[C@@H]23 , target or system HCT-15.
Output line: 44

Input line: Find the measured GI50: item C(=N\c1ccc(-c2nc3ccccc3o2)cc1)/c1ccco1 , target or system HCT-15.
Output line: 49.3

Input line: Find the measured GI50: item COc1cc(/C=C2\N=C(c3ccccc3)N(c3nc4c(Cl)cc(Cl)cc4s3)C2=O)ccc1O , target or system HCT-15.
Output line: 31.3

Input line: Find the measured GI50: item CC1OC(n2cc(F)c(=O)[nH]c2=O)CCC1=O (stereo unspecified) , target or system HCT-15.
Output line: 95.3

====

- Test system: DU-145
- Method description: NCI tumour cell line growth inhibition, 48 h
The source made the active and inactive calls. No stated cut-off is given here; in the data, active = GI50 up to about 1.1 µM and inactive = higher.
Exercise: state measured GI50 for each of the compounds provided.

Input line: Request the reported GI50 associated with N#CCCSC(=S)C1CCCC1=N (stereo unspecified)
Output line: > 100 µM (inactive)

Input line: Request the reported GI50 associated with CC(=O)O[C@H]1CC[C@H]2[C@@H]3CCC4=C(C(=O)C=CC4(C)OC(C)=O)[C@H]3CC[C@]12C (stereo partly specified)
Output line: > 100 µM (inactive)

Input line: Request the reported GI50 associated with S=C(NN=C1NCCCCN1)Nc1ccccc1
Output line: > 100 µM (inactive)

Input line: Request the reported GI50 associated with C[C@H]1COC2=C1C(=O)C(=O)c1c2ccc2c1CCCC2(C)C [CRYPTOTANSHINONE]
Output line: 1.35 µM (inactive)

Input line: Request the reported GI50 associated with N#CC1=C(N)OC2=C(CCCc3ccccc32)C1c1ccc([N+](=O)[O-])cc1 (stereo unspecified)
Output line: 10.1 µM (inactive)

Input line: Request the reported GI50 associated with CC(=O)Nc1ccc(N2C(=O)CS(=O)(=O)C2c2cccc(Oc3ccccc3)c2)cc1 (stereo unspecified)
Output line: 33.7 µM (inactive)

Input line: Request the reported GI50 associated with COc1ccc2c(c1)CC[C@@H]1C2CC[C@]2(C)C(=C=CP(=O)(O)O)CCC12 (stereo partly specified)
Output line: > 100 µM (inactive)

Input line: Request the reported GI50 associated with Cc1nn(-c2ccccc2)c2c1C(c1cc3ccccc3nc1Cl)NC(=O)N2 (stereo unspecified)
Output line: 29.4 µM (inactive)

Input line: Request the reported GI50 associated with CC(C#N)NCc1ccc(C(C)NC(C)C#N)cc1 (stereo unspecified)
Output line: > 100 µM (inactive)

Input line: Request the reported GI50 associated with CNc1nc(N)nc(Nc2ccc(I)cc2)c1N=O
Output line: > 100 µM (inactive)

Input line: Request the reported GI50 associated with CC(=O)OCC(=O)OC[C@H](OCc1ccccc1)[C@@H]1[C@H](OC(C)=O)C(=O)N1Cc1ccccc1
Output line: > 100 µM (inactive)

Input line: Request the reported GI50 associated with C=CC/C(C(=O)OC)=C(/C(=O)OC)N(CCC)CCC
Output line: > 100 µM (inactive)

Input line: Request the reported GI50 associated with CC(NC1=CC(=O)c2ncccc2C1=O)C(O)c1ccccc1 (stereo unspecified)
Output line: 6.22 µM (inactive)

Input line: Request the reported GI50 associated with N#CC(NNC(=O)Cc1ccccc1)c1c(O)ccc2ccccc12 (stereo unspecified)
Output line: 10.2 µM (inactive)

Input line: Request the reported GI50 associated with C[N+]12CCN(c3ccccc31)c1ccccc12.[O-][Cl+3]([O-])([O-])[O-]
Output line: > 10 µM (inactive)

Input line: Request the reported GI50 associated with CCOC(=O)c1sc2nc(SC)nc3c2c1NCN3c1ccc2c(c1)OCO2
Output line: 12.1 µM (inactive)

Input line: Request the reported GI50 associated with Cc1cc2c(c3c1c1ccccc1n3C)C(=O)C=CC2=O
Output line: 58.9 µM (inactive)

Input line: Request the reported GI50 associated with C=C1C(=O)O[C@@H]2C[C@@]3(C)CC(=O)C=C(C)[C@@H]3C[C@H]12
Output line: 4.29 µM (inactive)

Input line: Request the reported GI50 associated with COc1ccc(C(=O)/C=C2\C(=O)Nc3ccc(Br)cc32)cc1
Output line: 7.48 µM (inactive)

Input line: Request the reported GI50 associated with O=c1[nH]nc(Cc2ccccc2)n1/N=C/c1ccco1
Output line: > 100 µM (inactive)

Input line: Request the reported GI50 associated with COC1CC(CC2CCC(C)C(C(C)C(=O)O)O2)OC2(OC(C)(C3CCC(C)(C4OC(C5OC(O)(CO)C(C)CC5C)CC4C)O3)CC2C)C1C (stereo unspecified)
Output line: 3.85 µM (inactive)
